Target: 275
Experiment: SPR; liposome-bound MPER
Where no end group is shown, it is not given here. The star is where a group is joined. Palmitoyl = CCCCCCCCCCCCCCCC(=O)*
RECORDED METRIC: pKd
Keep in mind that pKd stands for -log10 of concentration in molar terms.

The binder Palmitoyl-DLLELDKWASLWNWFNITNWLWYIK [N-terminally palmitoylated MPER peptide] showed pKd equal to 7.74
